Where do these numbers come from? They come from PubChem BioAssay (NCI).

Kindly supply the reported growth values for the records listed here.
System: SN12C renal
testProtocol: NCI-60 one-dose screen, 48 h (100 = growth as untreated, 0 = no growth, -100 = all killed)
details: 10 µM unless noted
This is part of a sample that, as a whole, favours compounds with a hit. Of some 83,000 tested, about 20% had one in any assay.
# value in %; strip the unit string

// returns reported growth for input CCOC(=O)c1sc2nc(-c3cc(OC)c(OC)c(OC)c3)nc(N3CCOCC3)c2c1C
36

// growth lookup, key: CC1=C/C(=C(\c2cc(C)c(O)c(C(=O)O)c2)c2c(Cl)cccc2Cl)C=C(C(=O)O)C1=O
97.1

Item under review: O=[N+]([O-])c1ccc(O)c(-c2nc3ccccc3s2)c1 . Reported growth?
64.9

# growth lookup, item CCOC(=O)n1cc(C2=C(c3ccc(OC)c(OC)c3)COC2=O)c2ccccc21
18.5

Which growth is listed for CC(C)c1ccc(C(=O)Nc2nc3ccc(O)cc3s2)cc1 ?
39.4

Given CC(C)CCNCC(C)(C)O , state its recorded growth.
110

Reported growth, compound Cc1ccc2c(c1)C(C)Cc1c(Cl)ncnc1N2C (stereo not given) : ____
32.8

Can you share its growth? I mean this compound: CC(C)C1=NOC(=O)C1=Cc1cn(-c2cccnc2)nc1-c1ccccc1
87.5

# get_value(readout='growth', item= Cc1ccccc1-n1nnc(C(=O)Nc2nc3ccc(F)cc3s2)c1C )
68.6

Can you look up the measured growth of Fc1ccc(NC(=S)c2ccccc2)cc1 for me?
103
